Values from patent US12455279B2

# Test system: PD-1 expressing smaller non-proliferating CD3+ normal human T cells
# experiment description: PD-1 expression on smaller non-proliferating T cells (FSC/SSC gating), 1 Hr treatment
# Assay type: cell-based
# setup conditions: concentration not given
property name: % of smaller T cells expressing PD-1
The reply should consist of the numeric value with the unit placed after it.

{"columns": ["smiles str", "% of smaller T cells expressing PD-1"],
 "data": [
  ["OC1(c2ccc(Cl)cc2)CCN(Cc2c[nH]c3ccccc23)CC1", "38.6%"],
  ["CN1CCc2cc(Cl)c(O)cc2[C@H]2c3ccccc3CC[C@@H]21", "40.1%"],
  ["Cc1c(C2CCN(CCc3ccccc3)CC2)noc1-c1ccc(Cl)cc1", "37.8%"]
]}

Please examine the following record next.
Param item = O=C(NCCCCN1CCN(c2cccc(Cl)c2Cl)CC1)c1ccc2c(c1)Cc1ccccc1-2 ; retrieve measured % of smaller T cells expressing PD-1.
40.2%

----------
# Tested on: PD-1 expressing CD3+ normal human T cells
# experiment description: PD-1 surface expression on CD3+ T cells of healthy donors after treatment (1, 18, 24 Hr)
# Format: cell-based
# setup conditions: 18 Hr treatment; 10^−7M; vs untreated
property name: % reduction in % of T cells expressing PD-1 (%)
The reply should be a number in %, with the unit left off.

Known % reduction in % of T cells expressing PD-1 results, listed for orientation:
{"columns": ["molecule", "reported"],
 "data": [
  ["Oc1ccc(C2CNCCc3c2cc(O)c(O)c3Cl)cc1 (centres unmarked) [Fenoldopam - Corlopam, Fenoldopam]", 19.74],
  ["N[C@@H](CCC(=O)O)C(=O)O [Glutamate]", 31.7],
  ["CN[C@@H]1Cc2cccc3[nH]c(=O)n(c23)C1 [Sumanirole]", 24.64],
  ["Oc1cc2c(cc1O)C(c1ccccc1)CNCC2 (centres unmarked) [SKF38393]", 23.90],
  ["CN[C@H](CC(=O)O)C(=O)O [NMDA, N-methyl-D-aspartic acid]", 28.67]
]}

Requested read-out % reduction in % of T cells expressing PD-1, target or system PD-1 expressing CD3+ normal human T cells, entry Oc1ccc(C2CNCCc3c2cc(O)c(O)c3Cl)cc1 (centres unmarked) [Fenoldopam (powder), Fenoldopam]
25.79

Param item: NC[C@@H]1O[C@H](C23CC4CC(CC(C4)C2)C3)Cc2c1ccc(O)c2O [A77636]
21.90

Param item: Cc1onc(O)c1CC(N)C(=O)O (centres unmarked) [AMPA]
17.72

Param item: Cc1cccc(C(=O)NCN2CCN(c3ccccc3C#N)CC2)c1 [PD168077]
30.84

Param item: CCCN1CCO[C@@H]2c3cc(O)ccc3OC[C@H]21 [PD 128907]
21.47

Param item: NCCc1ccc(O)c(O)c1 [Dopamine]
28.40

----------
Items are presented alongside their recorded % reduction in % of large T cells expressing PD-1.
# System: PD-1 expressing large proliferating CD3+ normal human T cells
# experiment description: PD-1 expression on large proliferating T cells (FSC/SSC gating), 1 Hr treatment
# Format: cell-based
# setup conditions: 10^−8M, vs untreated
The reply should be a number in %, with the unit left off.

Known % reduction in % of large T cells expressing PD-1 results, listed for orientation:
{"columns": ["molecule", "reported"],
 "data": [
  ["NCCc1ccc(O)c(O)c1 [Dopamine]", 11.2],
  ["CCCN1CCO[C@@H]2c3cc(O)ccc3OC[C@H]21 [PD 128907]", 25.1],
  ["CN[C@@H]1Cc2cccc3[nH]c(=O)n(c23)C1 [Sumanirole]", 36.7],
  ["NC[C@@H]1O[C@H](C23CC4CC(CC(C4)C2)C3)Cc2c1ccc(O)c2O [A77636]", 4.7],
  ["Cc1cccc(C(=O)NCN2CCN(c3ccccc3C#N)CC2)c1 [PD168077]", 27.4],
  ["N[C@@H](CCC(=O)O)C(=O)O [Glutamate]", 39.5]
]}

Param item = Oc1cc2c(cc1O)C(c1ccccc1)CNCC2 (stereo not shown) [SKF38393] ; retrieve measured % reduction in % of large T cells expressing PD-1.
27.4
